// provenance: ChEMBL document CHEMBL1144610

# assay.target: Delta-type opioid receptor (Homo sapiens, UniProt P41143)
# Sequence (P41143 whole entry): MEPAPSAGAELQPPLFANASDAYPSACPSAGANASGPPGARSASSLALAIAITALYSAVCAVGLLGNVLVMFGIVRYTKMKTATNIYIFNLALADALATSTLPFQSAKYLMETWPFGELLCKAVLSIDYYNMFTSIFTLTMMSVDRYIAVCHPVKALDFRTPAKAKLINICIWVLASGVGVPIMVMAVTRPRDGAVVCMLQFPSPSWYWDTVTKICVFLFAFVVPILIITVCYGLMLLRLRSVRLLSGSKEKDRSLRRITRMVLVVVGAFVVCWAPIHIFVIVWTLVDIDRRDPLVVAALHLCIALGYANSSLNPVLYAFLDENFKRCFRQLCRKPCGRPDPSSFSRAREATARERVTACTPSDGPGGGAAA
# assay.notes: Displacement of [3H]naltrindole from human delta opioid receptors expressed in CHO cell membrane
readout.label: Ki (nM)
Give bare numbers, in nM.

// below: answered compounds
1. O=C(Nc1ccccc1)Oc1ccc2c(c1)C13CCCCC1C(C2)N(CC1CCC1)CC3 (single isomer, unassigned; (-))    3.9
2. O=C(NCc1ccccc1)Oc1ccc2c(c1)C13CCCCC1C(C2)N(CC1CCC1)CC3 (single isomer, unassigned; (-))    15
3. CNC(=O)Oc1ccc2c(c1)C13CCCCC1C(C2)N(CC1CC1)CC3 (single isomer, unassigned; (-))    42

get_value(item= O=C(NCc1ccccc1)Oc1ccc2c(c1)C13CCCCC1C(C2)N(CC1CC1)CC3 (single isomer, unassigned; (-)) , readout=Ki) returns 2.7

* * *

# assay.target: Kappa-type opioid receptor (Homo sapiens)
# assay.notes: Agonist activity at human opioid kappa receptor expressed in CHO cells assessed as maximal stimulation of [35S]GTP-gamma-S binding relative to control
# Format: functional, cell-based
Please go through the items and note down their Emax.
One number for each entry, in %.

1. CCNC(=O)Oc1ccc2c(c1)C13CCCCC1C(C2)N(CC1CCC1)CC3 (centres undefined)    61

Go through the items and report each one's Emax.
1. CCNC(=O)Oc1ccc2c(c1)C13CCCCC1C(C2)N(CC1CC1)CC3 (single isomer, unassigned; (-))
2. CNC(=O)Oc1ccc2c(c1)C13CCCCC1C(C2)N(CC1CCC1)CC3 (single isomer, unassigned; (-))
3. O=C(Nc1ccccc1)Oc1ccc2c(c1)C13CCCCC1C(C2)N(CC1CCC1)CC3 (single isomer, unassigned; (-))

140
88
74

Answer for every listed entry: what is its Emax? The entries follow.
1. CNC(=O)Oc1ccc2c(c1)C13CCCCC1C(C2)N(C)CC3 (centres undefined)
2. O=C(NCc1ccccc1)Oc1ccc2c(c1)C13CCCCC1C(C2)N(CC1CCC1)CC3 (single isomer, unassigned; (-))
3. CNC(=O)Oc1ccc2c(c1)C13CCCCC1C(C2)N(CC1CC1)CC3 (single isomer, unassigned; (-))

1. 96
2. 110
3. 78

Value sought for every listed compound: Emax.
1. O=C(NCc1ccccc1)Oc1ccc2c(c1)C13CCCCC1C(C2)N(CC1CC1)CC3 (single isomer, unassigned; (-))
2. O=C(Nc1ccccc1)Oc1ccc2c(c1)C13CCCCC1C(C2)N(CC1CC1)CC3 (centres undefined)

1: 130; 2: 120

* * *

# assay.target: Delta-type opioid receptor (Homo sapiens, UniProt P41143)
# assay.notes: Displacement of [3H]naltrindole from human delta opioid receptors expressed in CHO cell membrane
pKi: −log10 of the molar value.
Response key: fulfilled means pKi >= 8; not fulfilled means pKi < 8.

1. CCNC(=O)Oc1ccc2c(c1)C13CCCCC1C(C2)N(CC1CCC1)CC3 (stereo unspecified)    not fulfilled
2. CCNC(=O)Oc1ccc2c(c1)C13CCCCC1C(C2)N(C)CC3 (stereo unspecified)    not fulfilled
3. CNC(=O)Oc1ccc2c(c1)C13CCCCC1C(C2)N(CC1CCC1)CC3 (single isomer, unassigned; (-))    not fulfilled
4. CCNC(=O)Oc1ccc2c(c1)C13CCCCC1C(C2)N(CC1CC1)CC3 (single isomer, unassigned; (-))    fulfilled
5. O=C(Nc1ccccc1)Oc1ccc2c(c1)C13CCCCC1C(C2)N(CC1CC1)CC3 (stereo unspecified)    fulfilled

Next up:
Record CNC(=O)Oc1ccc2c(c1)C13CCCCC1C(C2)N(C)CC3 (stereo unspecified) ; criterion: pKi no lower than 8. Met?
not fulfilled

* * *

# assay.target: Mu-type opioid receptor (Homo sapiens)
# Sequence (P35372 whole entry): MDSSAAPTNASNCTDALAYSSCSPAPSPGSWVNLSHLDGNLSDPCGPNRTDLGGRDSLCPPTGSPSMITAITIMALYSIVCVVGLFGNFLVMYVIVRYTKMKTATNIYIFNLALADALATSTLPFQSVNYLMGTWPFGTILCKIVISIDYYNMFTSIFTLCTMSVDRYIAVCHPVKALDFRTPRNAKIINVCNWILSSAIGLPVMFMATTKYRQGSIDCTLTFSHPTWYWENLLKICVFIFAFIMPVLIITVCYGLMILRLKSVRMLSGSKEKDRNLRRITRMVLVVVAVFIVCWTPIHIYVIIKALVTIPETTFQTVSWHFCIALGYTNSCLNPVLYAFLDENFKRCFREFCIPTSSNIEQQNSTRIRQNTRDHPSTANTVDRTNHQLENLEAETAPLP
# assay.notes: Antagonist activity at human mu opioid receptor expressed in CHO cells assessed as DAMGO-stimulated [35S]GTP-gamma-S binding
# Format: functional, cell-based
Please respond with reported Imax for every item in the list.
One number for each entry, in %.

For orientation, consider the following solved cases.
1. O=C(Nc1ccccc1)Oc1ccc2c(c1)C13CCCCC1C(C2)N(CC1CCC1)CC3 (single isomer, unassigned; (-))    37
2. O=C(Nc1ccccc1)Oc1ccc2c(c1)C13CCCCC1C(C2)N(CC1CC1)CC3 (stereo unspecified)    70
3. O=C(NCc1ccccc1)Oc1ccc2c(c1)C13CCCCC1C(C2)N(CC1CC1)CC3 (single isomer, unassigned; (-))    71
4. CCNC(=O)Oc1ccc2c(c1)C13CCCCC1C(C2)N(CC1CC1)CC3 (single isomer, unassigned; (-))    68
5. O=C(NCc1ccccc1)Oc1ccc2c(c1)C13CCCCC1C(C2)N(CC1CCC1)CC3 (single isomer, unassigned; (-))    50

Next item in the queue.
Kindly note: Mu-type opioid receptor (Homo sapiens), CCNC(=O)Oc1ccc2c(c1)C13CCCCC1C(C2)N(CC1CCC1)CC3 (stereo unspecified) , Imax value reported: 33

* * *

# assay.target: Mu-type opioid receptor (Homo sapiens)
# assay.notes: Agonist activity at human mu opioid receptor expressed in CHO cells assessed as maximal stimulation of [35S]GTP-gamma-S binding
# Type: functional, cell-based
Label Yes when Emax is strictly below 40%; at or above that, label No.

# check: Emax < 40% for CNC(=O)Oc1ccc2c(c1)C13CCCCC1C(C2)N(CC1CCC1)CC3 (single isomer, unassigned; (-))
No

Regarding CNC(=O)Oc1ccc2c(c1)C13CCCCC1C(C2)N(CC1CC1)CC3 (single isomer, unassigned; (-)) , kindly confirm whether its Emax is beneath 40%.
No

Determine whether this compound shows Emax lower than 40% (ties excluded): O=C(NCc1ccccc1)Oc1ccc2c(c1)C13CCCCC1C(C2)N(CC1CCC1)CC3 (single isomer, unassigned; (-))
No

# check: Emax < 40% for CNC(=O)Oc1ccc2c(c1)C13CCCCC1C(C2)N(C)CC3 (centres undefined)
No

is_below(Emax, 40%) for O=C(Nc1ccccc1)Oc1ccc2c(c1)C13CCCCC1C(C2)N(CC1CCC1)CC3 (single isomer, unassigned; (-)) ?
No

In the record for CCNC(=O)Oc1ccc2c(c1)C13CCCCC1C(C2)N(CC1CCC1)CC3 (centres undefined) , is Emax less than 40%?
Yes

* * *

Assign pKi to each entry below.
# assay.target: Kappa-type opioid receptor (Homo sapiens, UniProt P41145)
# Sequence (P41145 whole entry): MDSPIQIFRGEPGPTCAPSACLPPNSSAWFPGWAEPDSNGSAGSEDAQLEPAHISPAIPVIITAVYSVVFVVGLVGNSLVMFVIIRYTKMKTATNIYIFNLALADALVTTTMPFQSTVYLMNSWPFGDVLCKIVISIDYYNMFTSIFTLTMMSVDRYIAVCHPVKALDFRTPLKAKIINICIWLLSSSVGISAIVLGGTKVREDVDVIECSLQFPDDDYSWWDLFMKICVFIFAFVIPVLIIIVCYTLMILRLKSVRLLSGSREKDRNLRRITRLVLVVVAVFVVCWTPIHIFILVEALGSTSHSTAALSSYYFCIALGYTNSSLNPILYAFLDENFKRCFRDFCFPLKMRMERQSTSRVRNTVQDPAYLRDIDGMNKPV
Numbers only, as −log10 of the molar value.

Here is how some compounds turned out for pKi.
1. CCNC(=O)Oc1ccc2c(c1)C13CCCCC1C(C2)N(CC1CCC1)CC3 (stereo not given)    8.37
2. CCNC(=O)Oc1ccc2c(c1)C13CCCCC1C(C2)N(C)CC3 (stereo not given)    7.44
3. CCNC(=O)Oc1ccc2c(c1)C13CCCCC1C(C2)N(CC1CC1)CC3 (single isomer, unassigned; (-))    9.85
4. CNC(=O)Oc1ccc2c(c1)C13CCCCC1C(C2)N(C)CC3 (stereo not given)    8.48
5. O=C(Nc1ccccc1)Oc1ccc2c(c1)C13CCCCC1C(C2)N(CC1CC1)CC3 (stereo not given)    10.34
6. O=C(NCc1ccccc1)Oc1ccc2c(c1)C13CCCCC1C(C2)N(CC1CCC1)CC3 (single isomer, unassigned; (-))    9.52
7. CNC(=O)Oc1ccc2c(c1)C13CCCCC1C(C2)N(CC1CCC1)CC3 (single isomer, unassigned; (-))    9.09
8. CNC(=O)Oc1ccc2c(c1)C13CCCCC1C(C2)N(CC1CC1)CC3 (single isomer, unassigned; (-))    8.47
9. O=C(Nc1ccccc1)Oc1ccc2c(c1)C13CCCCC1C(C2)N(CC1CCC1)CC3 (single isomer, unassigned; (-))    10.29

Kindly review the next compound as well.
Lab book: pKi of O=C(NCc1ccccc1)Oc1ccc2c(c1)C13CCCCC1C(C2)N(CC1CC1)CC3 (single isomer, unassigned; (-)) noted as 9.85

* * *

# assay.target: Mu-type opioid receptor (Homo sapiens)
# assay.notes: Agonist activity at human mu opioid receptor expressed in CHO cells assessed as maximal stimulation of [35S]GTP-gamma-S binding
readout.label: pEC50
Numbers only, as −log10 of the molar value.

// below: answered compounds
1. CCNC(=O)Oc1ccc2c(c1)C13CCCCC1C(C2)N(CC1CC1)CC3 (single isomer, unassigned; (-))    8.62
2. CNC(=O)Oc1ccc2c(c1)C13CCCCC1C(C2)N(CC1CCC1)CC3 (single isomer, unassigned; (-))    7.96
3. O=C(Nc1ccccc1)Oc1ccc2c(c1)C13CCCCC1C(C2)N(CC1CC1)CC3 (centres undefined)    9.36
4. CNC(=O)Oc1ccc2c(c1)C13CCCCC1C(C2)N(CC1CC1)CC3 (single isomer, unassigned; (-))    7.85
5. CNC(=O)Oc1ccc2c(c1)C13CCCCC1C(C2)N(C)CC3 (centres undefined)    7.30

Each of the following entries comes with a recorded value; kindly state pEC50 for each.
1. O=C(NCc1ccccc1)Oc1ccc2c(c1)C13CCCCC1C(C2)N(CC1CCC1)CC3 (single isomer, unassigned; (-))
2. O=C(NCc1ccccc1)Oc1ccc2c(c1)C13CCCCC1C(C2)N(CC1CC1)CC3 (single isomer, unassigned; (-))

[8.15, 8.66]

Give pEC50 for all compounds that follow.
1. CCNC(=O)Oc1ccc2c(c1)C13CCCCC1C(C2)N(CC1CCC1)CC3 (centres undefined)
2. O=C(Nc1ccccc1)Oc1ccc2c(c1)C13CCCCC1C(C2)N(CC1CCC1)CC3 (single isomer, unassigned; (-))

7.41
8.89
